Protocol details: Metabolic stability in human liver microsomes assessed as parent compound remaining after 120 mins by UPLC analysis
Format: ADME, Microsome
Test parameters: read-out: Stability
Measurement kind: remaining at 2 h (%)
Give the number; % is assumed, so skip it.

Query: I have this compound here, CC(=O)c1ccc(OCCCN2CCN(c3ccncc3)CC2)cc1 , and I need its recorded remaining at 2 h.
Response: 91.3

----------
Target desc: Histamine H3 receptor (Homo sapiens)
Protocol details: Displacement of [3H]N-alpha-methylhistamine from full length recombinant human H3R expressed in HEK293 cell membranes after 90 mins by beta scintillation counting method
Ki reference
The reply should consist of the numeric value with the unit placed after it.

// worked examples, Ki included
CCC(=O)c1ccc(OCCCN2CCN(c3ncccn3)CC2)cc1 :: 1720 nM
CCC(=O)c1ccc(OCCCN2CCN(c3ccccn3)CC2)cc1 :: 377 nM
CCC(=O)c1ccc(OCCCN2CCN(c3cccnc3)CC2)cc1 :: 192 nM
CC(=O)c1ccc(OCCCCN2CCN(c3ncccn3)CC2)cc1 :: 1630 nM
CCC(=O)c1ccc(OCCCCN2CCN(c3cnccn3)CC2)cc1 :: 4040 nM

Let us examine a further case.
Query: Using the record for CC(=O)c1ccc(OCCCCN2CCN(c3ccccn3)CC2)cc1 , report its Ki.
Response: 3700 nM

----------
The following molecules are listed with their measured Ki values.
Target desc: Histamine H3 receptor (Homo sapiens)
Protocol details: Displacement of [3H]N-alpha-methylhistamine from full length recombinant human H3R expressed in HEK293 cell membranes after 90 mins by beta scintillation counting method
Please respond with the number in nM and leave the unit unwritten.

CCC(=O)c1ccc(OCCCCN2CCN(c3ncccn3)CC2)cc1 :: 3630
CCC(=O)c1ccc(OCCCN2CCN(C(=O)C3CCCO3)CC2)cc1 (stereo not drawn) :: 1390

Query: Given the entry CC(=O)c1ccc(OCCCN2CCN(c3ncccn3)CC2)cc1 , report its measured Ki.
Response: 2450

----------
Target desc: Histamine H3 receptor (Homo sapiens)
Protocol details: Displacement of [3H]N-alpha-methylhistamine from full length recombinant human H3R expressed in HEK293 cell membranes after 90 mins by beta scintillation counting method
pKi: −log10 of the molar value.
Classify by measured pKi: Fulfilled if it is equal to or exceeds 6, Not fulfilled if it is smaller.

Consider the following illustrative entries.
CC(=O)c1ccc(OCCCN2CCN(c3ccncc3)CC2)cc1 :: Fulfilled
CCC(=O)c1ccc(OCCCN2CCN(c3cnccn3)CC2)cc1 :: Not fulfilled
CCC(=O)c1ccc(OCCCN2CCN(c3ccncc3)CC2)cc1 :: Fulfilled

Query: Could you tell me if the measured pKi of CC(=O)c1ccc(OCCCCN2CCN(C(=O)C3CCCO3)CC2)cc1 (stereo not given) reaches 6 or more?
Response: Not fulfilled

Query: Quick check, pKi >= 6? CCC(=O)c1ccc(OCCCCN2CCN(C(=O)C3CCCO3)CC2)cc1 (stereo not given)
Response: Not fulfilled

----------
Target desc: Histamine H3 receptor (Homo sapiens, UniProt Q9Y5N1)
Sequence (Q9Y5N1 whole entry): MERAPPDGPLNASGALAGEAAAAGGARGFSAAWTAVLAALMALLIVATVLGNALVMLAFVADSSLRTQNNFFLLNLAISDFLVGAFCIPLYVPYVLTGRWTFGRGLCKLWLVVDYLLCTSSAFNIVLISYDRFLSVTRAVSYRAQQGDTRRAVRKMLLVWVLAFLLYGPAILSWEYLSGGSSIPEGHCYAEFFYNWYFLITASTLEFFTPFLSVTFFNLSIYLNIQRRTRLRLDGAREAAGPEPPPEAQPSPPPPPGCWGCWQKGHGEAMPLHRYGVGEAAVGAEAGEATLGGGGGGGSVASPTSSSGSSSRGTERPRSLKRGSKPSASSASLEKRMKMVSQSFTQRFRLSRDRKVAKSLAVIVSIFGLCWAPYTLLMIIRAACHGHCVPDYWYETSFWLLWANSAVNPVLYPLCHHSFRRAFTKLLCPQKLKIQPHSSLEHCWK
Protocol details: Displacement of [3H]N-alpha-methylhistamine from full length recombinant human H3R expressed in HEK293 cell membranes after 90 mins by beta scintillation counting method
Overview of reported pKi across a group of molecules:
# log scale: pKi equals minus log10 of the concentration in mol/L

CC(=O)c1ccc(OCCCCN2CCN(c3cnccn3)CC2)cc1 :: 5.91
CC(=O)c1ccc(OCCCN2CCN(c3ccccn3)CC2)cc1 :: 6.50
CCC(=O)c1ccc(OCCCCN2CCN(c3ccccn3)CC2)cc1 :: 5.84
CCC(=O)c1ccc(OCCCCN2CCN(c3cccnc3)CC2)cc1 :: 5.86
CC(=O)c1ccc(OCCCN2CCN(C(=O)C3CCCO3)CC2)cc1 (stereo not given) :: 5.31

Query: Fill in the recorded pKi for this molecule, with Histamine H3 receptor (Homo sapiens, UniProt Q9Y5N1) as test system: CC(=O)c1ccc(OCCCCN2CCN(c3ccncc3)CC2)cc1
Response: 6.94

Query: Lab note: need pKi with Histamine H3 receptor (Homo sapiens, UniProt Q9Y5N1) for entry CC(=O)c1ccc(OCCCN2CCN(c3cccnc3)CC2)cc1 , please look it up.
Response: 6.30

Query: Can you look up pKi on Histamine H3 receptor (Homo sapiens, UniProt Q9Y5N1) for CCC(=O)c1ccc(OCCCCN2CCN(c3ccncc3)CC2)cc1 ?
Response: 7.81

Query: API: value(readout= pKi, system= Histamine H3 receptor (Homo sapiens, UniProt Q9Y5N1), query= CC(=O)c1ccc(OCCCCN2CCN(c3cccnc3)CC2)cc1 )
Response: 6.04

Query: Can you look up pKi on Histamine H3 receptor (Homo sapiens, UniProt Q9Y5N1) for CC(=O)c1ccc(OCCCN2CCN(c3cnccn3)CC2)cc1 ?
Response: 5.64
